test: Clearance in rat; type: ADME, organism-based; settings: in vivo
reported_endpoint: clearance

substance_smiles=N#CC1(NC(=O)[C@@H]2CCCC[C@H]2C(=O)N2CCN(c3ccc(F)cc3)CC2)CC1 reported_endpoint=clearance meas_value="2.16 L/h/kg"

---

assay: Metabolic stability of the compound in rat liver microsomes assessed as compound turnover after 120 mins
reported_endpoint: microsomal CLint at 2 h

compound="CC1CN(c2ccc(S(C)(=O)=O)cc2)C(C)CN1C(=O)[C@@H]1CCCC[C@H]1C(=O)NC1(C#N)CC1 (stereo partly drawn)" reported_endpoint="microsomal CLint at 2 h" meas_value="4.3 µL/min/mg"
compound=CC1(C)CN(c2ccc(S(C)(=O)=O)cc2)CCN1C(=O)[C@@H]1CCCC[C@H]1C(=O)NC1(C#N)CC1 reported_endpoint="microsomal CLint at 2 h" meas_value="4.9 µL/min/mg"
compound=COc1ccc(N2CCN(C(=O)[C@@H]3CCCC[C@H]3C(=O)NC3(C#N)CC3)CC2)cc1 reported_endpoint="microsomal CLint at 2 h" meas_value="48 µL/min/mg"
